glycan array binding signal (z-score) values by entry
TARGET SYSTEM: Gal(b1-4)GlcNAc(b1-3)Gal(b1-4)GlcNAc(b1-2)[Gal(b1-4)GlcNAc(b1-3)Gal(b1-4)GlcNAc(b1-6)]Man(a1-6)[Gal(b1-4)GlcNAc(b1-3)Gal(b1-4)GlcNAc(b1-2)Man(a1-3)]Man(b1-4)GlcNAc(b1-4)[Fuc(a1-6)]GlcNAc
METHOD: glycan array binding signal (z-score within array); higher = stronger binding
REPORTED CONDITIONS: glycan notation: IUPAC condensed, linker removed
About 410 targets per protein were measured; listed, in parts, are those with the strongest signals and a random draw of the rest.
API doc: respond with a numeric literal and nothing else, no unit.

binder="Epa1 (Candida glabrata) (protein) MGSSHHHHHHSSGLVPRGSHMTSSNDISLASKDPTTFPLGCSPDITTPKKGLSMELYSYDFRKKGSYPCWDAAYLDPNYPRTGYKSHRLLAKVDGVTGNINFYYHATKGCTPQLGHLPASYNYPKPLTMTNFTMLLYGYFRPKVTGFHTFTISADDLLFVNFGAGNAFDCCRRDSSADHFGNYQAYAIWGSKTAKDELTVHLDAGVYYPIRLFYNNREYDGALSFTFKTESNENTVSDFSEYFFSLDDTEEGCPGLISYD" assay_value=3.08

Request: Please give the measured glycan array binding signal (z-score) for this binder: Epa11 (Candida glabrata) (protein) MGSSHHHHHHSSGLVPRGSHMASSNAPNYPVGCSPSVGTQLTPGLSLEVYAYPMDGNNGYCWNATYKDPEFPRSGYLKNKLLGKADGVVGPLNFLAKNKDCSPKVDTLPAGFNFPQPITVTNFTMVLFGYLAPKQSGKYTFKLLADDLLLLNLGATNAFDCCNREATKNNLGEFLAYNLWPNQDKNVTVYLEKGVYYPLRLFFNNRDGGSQLDFSYYFNDSPAPLTDFSGMFFSVPDGAECPARI
Response: 1.98

Request: Can you handle Clone646PsrP (Streptococcus pneumoniae) (protein) MDHHHHHHHHASENLYFQGAPAINASLNIAKSETKVYTGEGVDSVYRVPIYYKLKVTNDGSKLTFTYTVTYVNPKTNDLGNISSMRPGYSIYNSGTSTQTMLTLGSDLGKPSGVKNYITDKNGRQVLSYNTSTMTTQGSGYTWGNGAQMNGFFAKKGYGLTSSWTVPITGTDTSFTFTPYAARTDRIGINYFNGGGKVVESSTTSQSLSQSKSLSVSAS next?
Response: -0.263

Provenance of the data: the supplement of paper PMC8728848
